Molecular target: E. coli DNA gyrase (Escherichia coli)
Construct: made in house; host or cells: E. coli BL21 (DE3)
Test: Test for evaluating the activity of inhibiting E. coli DNA gyrase enzyme (Method 2, supercoiling, recombinant gyrA/gyrB complex)
Assay type: biochemical
Please provide measured IC50 for the entries that follow.
Field: numeric (nM). Do not append units.

Provide IC50, tested on E. coli DNA gyrase (Escherichia coli), for CNc1cc(F)cc2c(NC3CC34CCNCC4)c(C(=O)Nc3ccc(C(=O)O)cc3)c(=O)[nH]c12.O=CO (stereo not shown) [Example 139] .
6.94

Provide IC50, tested on E. coli DNA gyrase (Escherichia coli), for CNc1cccc2cc(C(=O)Nc3cnc(N4CCC(N)(C(=O)O)CC4)nc3)c(=O)[nH]c12.Cl [Example 39] .
48.7

Provide IC50, tested on E. coli DNA gyrase (Escherichia coli), for CNc1cc(F)cc2cc(C(=O)Nc3ccc(C(=O)O)cc3CNC3CCCCC3)c(=O)[nH]c12.O=C(O)C(F)(F)F [Example 113] .
0.26

Provide IC50, tested on E. coli DNA gyrase (Escherichia coli), for CNc1cc(F)cc2cc(C(=O)Nc3ccc(C(=O)O)cc3CN(CCO)C3CCCCC3)c(=O)[nH]c12.Cl [Example 104, hydrochloride] .
0.29

###

// E. Coli ATCC 25922 MIC records
Counter-ions that a name gives are not always drawn.

Kindly indicate its recorded MIC. Item: CNc1cc(F)cc2c(NCC3CCNC3)c(C(=O)Nc3ccc(C(=O)O)cc3)c(=O)[nH]c12.O=CO (centres unmarked)
> 16 µg/mL

Kindly indicate its recorded MIC. Item: `CNc1cc(F)cc2cc(C(=O)Nc3ccc(C(=O)NCCN)cc3)c(=O)[nH]c12.Cl`
> 8 µg/mL

Kindly indicate its recorded MIC. Item: `CNc1cc(F)cc2cc(C(=O)Nc3ccc(C(=O)NS(=O)(=O)N(C)C)cc3)c(=O)[nH]c12`
16 µg/mL

Kindly indicate its recorded MIC. Item: `CNc1cccc2cc(C(=O)NCCc3ccc(C(=O)O)cc3)c(=O)[nH]c12`
> 32 µg/mL

Kindly indicate its recorded MIC. Item: CNc1cc(F)cc2cc(C(=O)Nc3ccc(C(=O)O)c(OCCN4CCN(C)CC4)c3)c(=O)[nH]c12 [Example 54, hydrochloride]
> 16 µg/mL

###

Biological target: E. coli DNA gyrase (Escherichia coli)
Construct: made in house; host or cells: E. coli BL21 (DE3)
Assay: Test for evaluating the activity of inhibiting E. coli DNA gyrase enzyme (Method 1, supercoiling, Inspiralis enzyme)
Format: biochemical
Conditions: Method 1; read-out: E. Coli Gyrase supercoiling IC50
Procedure: Test Example 1-1 Test for Evaluating the Activity of Inhibiting E. coli DNA Gyrase Enzyme (Method 1) The enzymatic activity of E. coli DNA gyrase was measured by a method comprising reacting DNA gyrase and its substrate, relaxed pBR322 (Inspiralis), in the presence of ATP and detecting the post-reaction supercoiled pBR322/relaxed pBR322 ratio with H19 (Profoldin). […]
Where a name gives a salt, the structure may show the parent alone.
Please provide measured IC50 for the entries that follow.
Field: numeric (nM). Do not append units.

Kindly indicate its recorded IC50. Item: `CNc1cccc2cc(C(=O)Nc3ccc(-c4noc(=O)[nH]4)cc3)c(=O)[nH]c12`
15.7

Kindly indicate its recorded IC50. Item: `CNc1cc(F)cc2cc(C(=O)Nc3cnc(NCCN4CCN(C)CC4)nc3)c(=O)[nH]c12`
5.46

Kindly indicate its recorded IC50. Item: `CNc1cccc2cc(C(=O)NC3CCN(c4ncc(C(=O)O)s4)CC3)c(=O)[nH]c12`
124

Kindly indicate its recorded IC50. Item: CN=S(C)(=O)c1ccc(NC(=O)c2cc3cccc(NC)c3[nH]c2=O)cc1 (stereo not shown)
174

Kindly indicate its recorded IC50. Item: `CNc1cccc2cc(C(=O)NCc3csc(NC(=O)OC(C)(C)C)n3)c(=O)[nH]c12`
258

Kindly indicate its recorded IC50. Item: `CNc1cc(F)cc2cc(C(=O)Nc3ccc(C(=O)NCC4CCN(CCN)CC4)cc3)c(=O)[nH]c12`
3.62

Kindly indicate its recorded IC50. Item: CNc1cc(F)cc2cc(C(=O)Nc3ccc(C(=O)O)cc3CNCCO)c(=O)[nH]c12 [Example 74, hydrochloride]
129

Kindly indicate its recorded IC50. Item: `CNc1cc(F)cc2cc(C(=O)Nc3cnc(C(=O)O)nc3)c(=O)[nH]c12`
0.95

Kindly indicate its recorded IC50. Item: `CNc1cccc2cc(C(=O)Nc3cnc(N4CCN(C)CC4)nc3)c(=O)[nH]c12`
32

Kindly indicate its recorded IC50. Item: `CNc1cc(F)cc2cc(C(=O)OCc3ccncc3N)c(=O)[nH]c12`
24.3

Kindly indicate its recorded IC50. Item: `CNc1cc(F)cc2cc(C(=O)Nc3ccc(C(=O)N(C)CCN4CCOCC4)cc3)c(=O)[nH]c12`
6.36

Kindly indicate its recorded IC50. Item: `CNc1cc(F)cc2cc(C(=O)Nc3ccc(C(=O)O)c(O)c3)c(=O)[nH]c12`
2.05

Kindly indicate its recorded IC50. Item: `CNc1cccc2cc(C(=O)Nc3ccccc3CN(C)C3CCCCC3)c(=O)[nH]c12`
3.35

###

Target: E. coli DNA gyrase (Escherichia coli)
Construct: made in house; host or cells: E. coli BL21 (DE3)
Assay: Test for evaluating the activity of inhibiting E. coli DNA gyrase enzyme (Method 2, supercoiling, recombinant gyrA/gyrB complex)
Type: biochemical
Conditions: Method 2; read-out: E. Coli Gyrase supercoiling IC50
readout-name: IC50 (nM)
Field: numeric (nM). Do not append units.

Kindly indicate its recorded IC50. Item: `CNc1cc(F)cc2cc(C(=O)Nc3cnc(C(=O)NCCCN4CCOCC4)nc3)c(=O)[nH]c12`
0.47

Kindly indicate its recorded IC50. Item: `CNc1cc(F)cc2c(O)c(C(=O)Nc3ccc(C(=O)O)cc3CN3CCOCC3)c(=O)[nH]c12`
109

Kindly indicate its recorded IC50. Item: `CNc1cc(F)cc2cc(C(=O)Nc3ccc(C(=O)NO)cc3)c(=O)[nH]c12`
2.56

Kindly indicate its recorded IC50. Item: `CNc1cc(F)cc2nc(C(=O)Nc3ccc(C(=O)O)cc3CN(C)C3CCCCC3)c(=O)[nH]c12`
33.7

###

Molecular target: E. coli DNA gyrase (Escherichia coli, UniProt P0AES6)
Construct: made in house; host or cells: E. coli BL21 (DE3)
Assay: Test for evaluating the activity of inhibiting E. coli DNA gyrase enzyme (Method 1, supercoiling, Inspiralis enzyme)
Assay type: biochemical
# if measured IC50 < 300 nM: fulfilled  # else: not fulfilled

State whether 300 nM exceeds IC50 recorded for CNc1cccc2cc(C(=O)Nc3cnc(N)s3)c(=O)[nH]c12.Cl [Example 25] .
fulfilled

State whether 300 nM exceeds IC50 recorded for CNc1cc(F)cc2cc(C(=O)Nc3cnc(N4CCNCC4)nc3)c(=O)[nH]c12.Cl [Example 55] .
fulfilled

State whether 300 nM exceeds IC50 recorded for CNc1cccc2cc(C(=O)Nc3cnc(N4CCC(N)CC4)nc3)c(=O)[nH]c12.O=CO [Example 45, formate] .
fulfilled

State whether 300 nM exceeds IC50 recorded for CNc1cccc2cc(C(=O)NCc3csc(N)n3)c(=O)[nH]c12.Cl [Example 31, hydrochloride] .
not fulfilled

State whether 300 nM exceeds IC50 recorded for CNc1cc(F)cc2cc(C(=O)Nc3cnc(NCCN)nc3)c(=O)[nH]c12.O=CO [Example 59] .
fulfilled

State whether 300 nM exceeds IC50 recorded for CNc1cc(F)cc2cc(C(=O)Nc3ccc(C(=O)O)c(OCCCN)c3)c(=O)[nH]c12.O=CO [Example 62] .
fulfilled

State whether 300 nM exceeds IC50 recorded for CNc1cccc2cc(C(=O)Nc3ccc(C(=O)O)cc3OCCN3CCN(C)CC3)c(=O)[nH]c12.Cl [Example 44, hydrochloride] .
not fulfilled

State whether 300 nM exceeds IC50 recorded for CNc1cccc2cc(C(=O)Nc3ccc(C(=O)O)cc3OCCCN)c(=O)[nH]c12.O=CO [Example 48] .
fulfilled

###

Target: E. coli DNA gyrase (Escherichia coli)
Construct: made in house; host or cells: E. coli BL21 (DE3)
Test: Test for evaluating the activity of inhibiting E. coli DNA gyrase enzyme (Method 2, supercoiling, recombinant gyrA/gyrB complex)
Type: biochemical
readout-name: IC50 (nM)
Field: numeric (nM). Do not append units.

Kindly indicate its recorded IC50. Item: `CNc1cc(F)cc2cc(C(=O)Nc3ccc(C(=O)O)cc3CN3CCCCC3)c(=O)[nH]c12`
0.31

Kindly indicate its recorded IC50. Item: `CNc1cc(F)cc2c(NCC3CNC3)c(C(=O)Nc3ccc(C(=O)O)cc3)c(=O)[nH]c12.O=CO`
0.66

Kindly indicate its recorded IC50. Item: `CNCCCc1c(C(=O)Nc2ccc(C(=O)O)cc2)c(=O)[nH]c2c(NC)cc(F)cc12.O=C(O)C(F)(F)F`
131

Kindly indicate its recorded IC50. Item: CNc1cc(F)cc2cc(C(=O)Nc3ccc(C(=O)O)cc3CN3CCCC(N)C3)c(=O)[nH]c12.Cl (stereo not shown)
15.1

Kindly indicate its recorded IC50. Item: CNc1cc(F)cc2c(NCC3CCNC3)c(C(=O)Nc3ccc(C(=O)O)cc3)c(=O)[nH]c12.O=CO (stereo not shown)
0.82

Kindly indicate its recorded IC50. Item: `CNCCc1c(C(=O)Nc2ccc(C(=O)O)cc2)c(=O)[nH]c2c(NC)cc(F)cc12.O=C(O)C(F)(F)F`
109

Kindly indicate its recorded IC50. Item: `CNc1cc(F)cc2c(O)c(C(=O)Nc3ccc(C(=O)O)cc3CN3CCC3)c(=O)[nH]c12.O=CO`
13.4
